- SYSTEM UNDER TEST: T1, mouse matriptase-2 ECD protein his tag (mouse, UniProt Q9DBI0 80-811)
- T1 sequence: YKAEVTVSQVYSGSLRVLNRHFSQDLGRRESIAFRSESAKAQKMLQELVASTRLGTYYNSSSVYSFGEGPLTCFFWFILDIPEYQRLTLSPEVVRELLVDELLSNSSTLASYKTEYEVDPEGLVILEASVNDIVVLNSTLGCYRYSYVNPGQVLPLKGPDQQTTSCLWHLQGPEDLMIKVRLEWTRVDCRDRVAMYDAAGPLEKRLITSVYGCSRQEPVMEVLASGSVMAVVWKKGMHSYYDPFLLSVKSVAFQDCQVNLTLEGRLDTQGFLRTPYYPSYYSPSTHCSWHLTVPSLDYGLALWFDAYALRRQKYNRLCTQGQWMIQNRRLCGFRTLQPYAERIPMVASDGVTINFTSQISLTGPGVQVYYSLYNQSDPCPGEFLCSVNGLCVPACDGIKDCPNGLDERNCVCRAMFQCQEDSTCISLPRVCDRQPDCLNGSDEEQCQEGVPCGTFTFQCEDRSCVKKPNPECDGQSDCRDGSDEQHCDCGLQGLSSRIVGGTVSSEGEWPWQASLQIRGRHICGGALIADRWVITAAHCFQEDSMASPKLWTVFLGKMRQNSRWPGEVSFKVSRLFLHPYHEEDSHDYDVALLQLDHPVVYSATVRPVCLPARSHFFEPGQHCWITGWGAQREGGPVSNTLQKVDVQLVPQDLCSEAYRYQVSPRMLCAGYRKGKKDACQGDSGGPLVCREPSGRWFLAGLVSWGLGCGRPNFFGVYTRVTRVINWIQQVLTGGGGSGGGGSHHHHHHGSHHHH
- ASSAY COMMENT: cell-based or functional assay
MEASURE NAME: Inhibition enzymatic activity mouse MTP2 protein (IC50)

| BINDER | ENDPOINT RESULT |
| --- | --- |
| NORI-006 (antibody, human IgG4 S228P, kappa, V domains shown, human IgG4PE, kappa) VH: EVQLVESGGGLIKPGRSLRLSCTGSGFTFGDFGLSWFRQAPGKGLEWISFIRSKPYGGTTDYAASVKGRFTISRDDSKNVAYLQMNSLKTEDTAVYYCARNEILTGYYIFDYWGQGTLVTVSS VL: DIQMTQSPSSLSASLGDRVTITCQASQDINNYLNWYQVQPGKAPKLLIFDASILETGVPSRFSGSGSGTDFSFTISSLQPEDIATYYCQQYDNLPLTFGGGTKVDFKR | 22.9 nM |

With those in mind, consider the next binder.
Q: Which Inhibition enzymatic activity mouse MTP2 protein (IC50) value is on record for NORI-023 (antibody, human IgG4 S228P, lambda, V domains shown) VH: QVQLVESGGGLVKPGGSLRLSCAASGFTFSDYYMSWIRQAPGKGLEWVSYISSSGGNRYYADSVKGRFTISRDNAKNSLYLQMNSLRAEDTAVYYCARGGLRYFDWADFWGQGTLVTVSS VL: QSVLTQPPSVSAAPGQKVTISCSGSSSNIGNNYVSWYQQLPGTAPKLLIYDNNKRPSGIPDRFSGSKSGTSATLGIPELQTGDEADYYCGTWDNSLSAGVFGGGTKLTVLG ?
Result: 2.92 nM
